Assay: Alveolar macrophage (AM) pharmacokinetics of SPR206 from BAL cell pellet
Type: in vivo, human
Conditions: both sexes, human, in vivo, iv, 100 mg
Where a SMILES comes first, the peptide text is derived from it. Bridges are numbered along the chain shown (N, C = ends). [ ]: non-standard residue; d: D form. The star is where a group is joined. X1 = NC[C@@H](CC(=O)*)c1cccc(Cl)c1; Dab = NCC[C@H](N)C(=O)O; Dap = NC[C@H](N)C(=O)O
MEASUREMENT LABEL: Cmax

Measured Cmax, CC(C)C[C@@H]1NC(=O)[C@@H](Cc2ccccc2)NC(=O)[C@H](CCN)NC(=O)[C@@H](NC(=O)[C@H](CN)NC(=O)[C@@H](NC(=O)C[C@H](CN)c2cccc(Cl)c2)[C@@H](C)O)CCNC(=O)[C@H]([C@@H](C)O)NC(=O)[C@H](CCN)NC(=O)[C@H](CCN)NC1=O [SPR206] (X1-T[Dap][Dab][Dab][dF]L[Dab][Dab]T; lactam 3-C (inferred)) : 861 ng/mL

* * *

Assay: clinical
Conditions: both sexes, human, in vivo, iv, 100 mg, AUC0-8, geometric mean (CV%)
Where a SMILES comes first, the peptide text is derived from it. Bridges are numbered along the chain shown (N, C = ends). [ ]: non-standard residue; d: D form. The star is where a group is joined. X1 = NC[C@@H](CC(=O)*)c1cccc(Cl)c1; Dab = NCC[C@H](N)C(=O)O; Dap = NC[C@H](N)C(=O)O
MEASUREMENT LABEL: AUC(0-t) (ng·h/mL)
Quick note: give the figure in ng·h/mL, leave out the unit.

Measured AUC(0-t), CC(C)C[C@@H]1NC(=O)[C@@H](Cc2ccccc2)NC(=O)[C@H](CCN)NC(=O)[C@@H](NC(=O)[C@H](CN)NC(=O)[C@@H](NC(=O)C[C@H](CN)c2cccc(Cl)c2)[C@@H](C)O)CCNC(=O)[C@H]([C@@H](C)O)NC(=O)[C@H](CCN)NC(=O)[C@H](CCN)NC1=O [SPR206] (X1-T[Dap][Dab][Dab][dF]L[Dab][Dab]T; lactam 3-C (inferred)) : 19800

* * *

Assay: clinical
Conditions: both sexes, human, in vivo, iv, 100 mg, Median time to peak plasma concentrations (Tmax)
Where a SMILES comes first, the peptide text is derived from it. Bridges are numbered along the chain shown (N, C = ends). [ ]: non-standard residue; d: D form. The star is where a group is joined. X1 = NC[C@@H](CC(=O)*)c1cccc(Cl)c1; Dab = NCC[C@H](N)C(=O)O; Dap = NC[C@H](N)C(=O)O
MEASUREMENT LABEL: Tmax (h)
Quick note: give the figure in h, leave out the unit.

Measured Tmax, CC(C)C[C@@H]1NC(=O)[C@@H](Cc2ccccc2)NC(=O)[C@H](CCN)NC(=O)[C@@H](NC(=O)[C@H](CN)NC(=O)[C@@H](NC(=O)C[C@H](CN)c2cccc(Cl)c2)[C@@H](C)O)CCNC(=O)[C@H]([C@@H](C)O)NC(=O)[C@H](CCN)NC(=O)[C@H](CCN)NC1=O [SPR206] (X1-T[Dap][Dab][Dab][dF]L[Dab][Dab]T; lactam 3-C (inferred)) : 2

* * *

Assay: Epithelial lining fluid (ELF) pharmacokinetics of SPR206 by bronchoscopy with BAL, urea dilution method
Format: in vivo, human
Conditions: both sexes, human, in vivo, iv, 100 mg
Where a SMILES comes first, the peptide text is derived from it. Bridges are numbered along the chain shown (N, C = ends). [ ]: non-standard residue; d: D form. The star is where a group is joined. X1 = NC[C@@H](CC(=O)*)c1cccc(Cl)c1; Dab = NCC[C@H](N)C(=O)O; Dap = NC[C@H](N)C(=O)O
MEASUREMENT LABEL: Tmax (h)
Quick note: give the figure in h, leave out the unit.

Measured Tmax, CC(C)C[C@@H]1NC(=O)[C@@H](Cc2ccccc2)NC(=O)[C@H](CCN)NC(=O)[C@@H](NC(=O)[C@H](CN)NC(=O)[C@@H](NC(=O)C[C@H](CN)c2cccc(Cl)c2)[C@@H](C)O)CCNC(=O)[C@H]([C@@H](C)O)NC(=O)[C@H](CCN)NC(=O)[C@H](CCN)NC1=O [SPR206] (X1-T[Dap][Dab][Dab][dF]L[Dab][Dab]T; lactam 3-C (inferred)) : 2.2

* * *

Assay: clinical
Settings: both sexes, human, in vivo, iv, 100 mg, Tmax, geometric mean (CV%)
Where a SMILES comes first, the peptide text is derived from it. Bridges are numbered along the chain shown (N, C = ends). [ ]: non-standard residue; d: D form. The star is where a group is joined. X1 = NC[C@@H](CC(=O)*)c1cccc(Cl)c1; Dab = NCC[C@H](N)C(=O)O; Dap = NC[C@H](N)C(=O)O
MEASUREMENT LABEL: Tmax (h)
Quick note: give the figure in h, leave out the unit.

Measured Tmax, CC(C)C[C@@H]1NC(=O)[C@@H](Cc2ccccc2)NC(=O)[C@H](CCN)NC(=O)[C@@H](NC(=O)[C@H](CN)NC(=O)[C@@H](NC(=O)C[C@H](CN)c2cccc(Cl)c2)[C@@H](C)O)CCNC(=O)[C@H]([C@@H](C)O)NC(=O)[C@H](CCN)NC(=O)[C@H](CCN)NC1=O [SPR206] (X1-T[Dap][Dab][Dab][dF]L[Dab][Dab]T; lactam 3-C (inferred)) : 2.1

* * *

Experiment: Alveolar macrophage (AM) pharmacokinetics of SPR206 from BAL cell pellet
Format: in vivo, human
Settings: both sexes, human, in vivo, iv, 100 mg
Where a SMILES comes first, the peptide text is derived from it. Bridges are numbered along the chain shown (N, C = ends). [ ]: non-standard residue; d: D form. The star is where a group is joined. X1 = NC[C@@H](CC(=O)*)c1cccc(Cl)c1; Dab = NCC[C@H](N)C(=O)O; Dap = NC[C@H](N)C(=O)O
MEASUREMENT LABEL: Tmax (h)
Quick note: give the figure in h, leave out the unit.

Measured Tmax, CC(C)C[C@@H]1NC(=O)[C@@H](Cc2ccccc2)NC(=O)[C@H](CCN)NC(=O)[C@@H](NC(=O)[C@H](CN)NC(=O)[C@@H](NC(=O)C[C@H](CN)c2cccc(Cl)c2)[C@@H](C)O)CCNC(=O)[C@H]([C@@H](C)O)NC(=O)[C@H](CCN)NC(=O)[C@H](CCN)NC1=O [SPR206] (X1-T[Dap][Dab][Dab][dF]L[Dab][Dab]T; lactam 3-C (inferred)) : 6.4

* * *

Assay: Epithelial lining fluid (ELF) pharmacokinetics of SPR206 by bronchoscopy with BAL, urea dilution method
Type: in vivo, human
Conditions: both sexes, human, in vivo, iv, 100 mg
Where a SMILES comes first, the peptide text is derived from it. Bridges are numbered along the chain shown (N, C = ends). [ ]: non-standard residue; d: D form. The star is where a group is joined. X1 = NC[C@@H](CC(=O)*)c1cccc(Cl)c1; Dab = NCC[C@H](N)C(=O)O; Dap = NC[C@H](N)C(=O)O
MEASUREMENT LABEL: AUC(0-t) (ng·h/mL)
Quick note: give the figure in ng·h/mL, leave out the unit.

Measured AUC(0-t), CC(C)C[C@@H]1NC(=O)[C@@H](Cc2ccccc2)NC(=O)[C@H](CCN)NC(=O)[C@@H](NC(=O)[C@H](CN)NC(=O)[C@@H](NC(=O)C[C@H](CN)c2cccc(Cl)c2)[C@@H](C)O)CCNC(=O)[C@H]([C@@H](C)O)NC(=O)[C@H](CCN)NC(=O)[C@H](CCN)NC1=O [SPR206] (X1-T[Dap][Dab][Dab][dF]L[Dab][Dab]T; lactam 3-C (inferred)) : 4860

* * *

Assay: clinical
Details: both sexes, human, in vivo, iv, 100 mg, Tmax range
Where a SMILES comes first, the peptide text is derived from it. Bridges are numbered along the chain shown (N, C = ends). [ ]: non-standard residue; d: D form. The star is where a group is joined. X1 = NC[C@@H](CC(=O)*)c1cccc(Cl)c1; Dab = NCC[C@H](N)C(=O)O; Dap = NC[C@H](N)C(=O)O
MEASUREMENT LABEL: Tmax

Measured Tmax, CC(C)C[C@@H]1NC(=O)[C@@H](Cc2ccccc2)NC(=O)[C@H](CCN)NC(=O)[C@@H](NC(=O)[C@H](CN)NC(=O)[C@@H](NC(=O)C[C@H](CN)c2cccc(Cl)c2)[C@@H](C)O)CCNC(=O)[C@H]([C@@H](C)O)NC(=O)[C@H](CCN)NC(=O)[C@H](CCN)NC1=O [SPR206] (X1-T[Dap][Dab][Dab][dF]L[Dab][Dab]T; lactam 3-C (inferred)) : 1.8 to 2.9 h

The measured values listed here are drawn from paper PMC10353446.
